target: IRAK4 (Homo sapiens (Human))
Sequence (Q9NWZ3 whole entry): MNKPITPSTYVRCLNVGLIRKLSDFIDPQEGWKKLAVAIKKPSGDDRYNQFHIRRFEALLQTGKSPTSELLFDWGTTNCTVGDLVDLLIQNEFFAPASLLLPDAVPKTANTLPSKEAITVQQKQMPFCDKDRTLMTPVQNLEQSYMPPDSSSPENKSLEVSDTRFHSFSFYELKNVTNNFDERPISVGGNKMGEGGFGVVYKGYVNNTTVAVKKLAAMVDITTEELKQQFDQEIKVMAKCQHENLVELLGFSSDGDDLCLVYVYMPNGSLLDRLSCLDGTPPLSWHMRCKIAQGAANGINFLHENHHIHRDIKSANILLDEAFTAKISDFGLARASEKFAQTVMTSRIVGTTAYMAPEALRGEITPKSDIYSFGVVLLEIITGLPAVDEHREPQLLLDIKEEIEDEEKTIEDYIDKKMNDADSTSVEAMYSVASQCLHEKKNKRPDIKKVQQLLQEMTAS
Counter-ions that a name gives are not always drawn.
t if IC50 is below 400 nM. f if not; exact matches included in f.

INSERT INTO results (molecule, system_name, label_class) VALUES
  ('O=C(Nc1ccsc1C(F)(F)F)c1ccc2ccc(N3CCCNCC3)nn12 [Example 115, trifluoroacetate]', 'IRAK4 (Homo sapiens (Human))', 'f'),
  ('N#Cc1ccccc1NC(=O)c1ccc2ccc(N3CC4CCC3CN4)nn12 (centres unmarked) [Example 102, trifluoroacetate]', 'IRAK4 (Homo sapiens (Human))', 'f'),
  ('Cn1cc(NC(=O)c2ccc3ccc(N[C@@H]4CCCC[C@@H]4N)nn23)c(C#N)n1 [Example 29, trifluoroacetate]', 'IRAK4 (Homo sapiens (Human))', 't'),
  ('Cn1cc(NC(=O)c2ccc3ccc(N[C@@H]4CCCC(F)(F)[C@@H]4N)nn23)c(C(F)F)n1 [Example 28, trifluoroacetate]', 'IRAK4 (Homo sapiens (Human))', 't'),
  ('O=C(Nc1ccccc1Br)c1ccc2ccc(N3CC4CCC3CN4)nn12 (centres unmarked) [Example 61, trifluoroacetate]', 'IRAK4 (Homo sapiens (Human))', 'f'),
  ('Cn1cc(NC(=O)c2ccc3ccc(N4CCNCC4)nn23)c(C(F)F)n1 [Example 14, trifluoroacetate]', 'IRAK4 (Homo sapiens (Human))', 't'),
  ('Cn1cc(NC(=O)c2ccc3ccc(N4CC5CCC4CN5)nn23)c(Cl)n1 (centres unmarked) [Example 26, trifluoroacetate]', 'IRAK4 (Homo sapiens (Human))', 't'),
  ('N#Cc1cscc1NC(=O)c1ccc2ccc(N[C@@H]3CCCC(F)(F)[C@@H]3N)nn12 [Example 89, trifluoroacetate]', 'IRAK4 (Homo sapiens (Human))', 't'),
  ('Cn1cc(NC(=O)c2ccc3ccc(N4C[C@H]5CNC[C@@H]4C5)nn23)c(C(F)F)n1 (single isomer, unassigned)', 'IRAK4 (Homo sapiens (Human))', 't'),
  ('N#Cc1sccc1NC(=O)c1ccc2ccc(N3C[C@H]4CC[C@@H]3CN4)nn12 (single isomer, unassigned) [Example 81, formate]', 'IRAK4 (Homo sapiens (Human))', 't'),
  ('O=C(Nc1ccsc1C(F)(F)F)c1ccc2ccc(N3C[C@@H]4CC[C@H]3CN4)nn12 (single isomer, unassigned) [Example 113, trifluoroacetate]', 'IRAK4 (Homo sapiens (Human))', 'f'),
  ('N#Cc1sccc1NC(=O)c1ccc2ccc(N[C@@H]3CCCC[C@@H]3O)nn12 [Example 97, trifluoroacetate]', 'IRAK4 (Homo sapiens (Human))', 'f'),
  ('O=C(Nc1cscc1Br)c1ccc2ccc(N3CC4CCC3CN4)nn12 (centres unmarked) [Example 62, trifluoroacetate]', 'IRAK4 (Homo sapiens (Human))', 'f'),
  ('N#Cc1sccc1NC(=O)c1ccc2ccc(N[C@@H]3CCCC(F)(F)[C@@H]3N)nn12 [Example 98, trifluoroacetate]', 'IRAK4 (Homo sapiens (Human))', 'f');

====

Where a name gives a salt, the structure may show the parent alone.
Measured IC50 (IRAK4 (Homo sapiens (Human)))
quantity: IC50 (nM)

INSERT INTO results (molecule, endpoint_unit, endpoint_result) VALUES
  ('N#Cc1ccccc1NC(=O)c1ccc2ccc(N[C@@H]3CCCC[C@@H]3O)nn12 [Example 104, trifluoroacetate]', 'nM', 1860),
  ('O=C(Nc1ccccc1Cl)c1ccc2ccc(N3CCCNCC3)nn12 [Example 59, trifluoroacetate]', 'nM', 1200),
  ('Cn1cc(NC(=O)c2ccc3ccc(N[C@@H]4CCCC(F)(F)[C@@H]4N)nn23)c(Br)n1 [Example 32, trifluoroacetate]', 'nM', 275),
  ('N[C@H]1CCCC[C@H]1Nc1ccc2ccc(C(=O)Nc3cscc3Cl)n2n1 [Example 85, trifluoroacetate]', 'nM', 2);

Cited source: patent US10040798B2
